# Test system: Lolium perenne (LOLPE)
# METHOD DESCRIPTION: Test Example 1 pre-emergence herbicidal activity
# Type: in vivo
# ASSAY CONTEXT: Lolium perenne, 480 h, rate 250 g/ha, evaluated 20 days later, read-out: Pre-emergence activity LOLPE (100=total damage to plant; 0=no damage to plant)
Parameter pest or weed control at 250 g/ha: see the listing below.
Field format: number, assumed %, no unit text.

CCOC(=O)OC1=C(c2c(CC)cc(C)cc2CC)C(=O)[C@@H]2[C@H]1[C@H]1CC[C@@H]2O1 (racemic) :: 100

// next item, pest or weed control at 250 g/ha requested
query: # query: pest or weed control at 250 g/ha | item CCc1cc(C)cc(CC)c1C1=C(O)[C@@H]2[C@@H]3O[C@@H](C[C@H]3c3ccc(C(C)=O)cc3)[C@@H]2C1=O | system: Lolium perenne (LOLPE)
result: 10

---

# Test system: Echinochloa crus-galli (ECHCG)
# METHOD DESCRIPTION: Test Example 1 pre-emergence herbicidal activity
# Assay type: in vivo
# ASSAY CONTEXT: Echinochloa crus-galli, 480 h, rate 250 g/ha, evaluated 20 days later, read-out: Pre-emergence activity ECHCG (100=total damage to plant; 0=no damage to plant)
We use 70% as the dividing line for pest or weed control at 250 g/ha: on or above the line is TRUE, below is FALSE.

CCc1nc2ccccc2nc1[C@@H]1C[C@@H]2O[C@H]1[C@H]1C(O)=C(c3c(C)cc(C)cc3C)C(=O)[C@H]12 :: FALSE
CCc1cc(C)cc(CC)c1C1=C(O)[C@@H]2[C@@H]3O[C@@H](C[C@H]3c3ccc(C)c(Cl)c3)[C@@H]2C1=O :: FALSE
CCC(=O)OC[C@]12C=C[C@H](O1)[C@@H]1C(=O)C(c3c(C)cc(C)cc3C)=C(O)[C@@H]12 :: FALSE
Cc1cc(C)c(C2=C(O)[C@H]3[C@@H](C2=O)[C@@H]2CC[C@@]3(CO)O2)c(C)c1 :: TRUE

query: Tell me whether pest or weed control at 250 g/ha is at least 70% here: CCc1cc(C)cc(CC)c1C1=C(O)[C@@H]2[C@@H]3O[C@@H](C[C@H]3c3ccc(SC)cc3)[C@@H]2C1=O
result: TRUE

query: Could you please find out whether Cc1cc(C)c(C2=C(O)[C@H]3[C@@H](C2=O)[C@]2(C)C=C[C@@]3(C)O2)c(C)c1 has pest or weed control at 250 g/ha that meets 70% or exceeds it?
result: FALSE

query: Answer whether pest or weed control at 250 g/ha of CCc1cc(C)cc(CC)c1C1=C(O)[C@@H]2[C@@H]3O[C@@H](C[C@H]3c3ccc(C#N)cc3)[C@@H]2C1=O is greater than or equal to 70%.
result: FALSE

---

# Tested on: Alopecurus myosuroides (ALOMY)
# METHOD DESCRIPTION: Test Example 1 post-emergence herbicidal activity
# Assay type: in vivo
# ASSAY CONTEXT: 360 h, rate 125 g/ha, evaluated 15 days later, read-out: Post-emergence activity ALOMY (100=total damage to plant; 0=no damage to plant)
ASSAY ENDPOINT: pest or weed control at 125 g/ha

CCc1cc(C)cc(CC)c1C1=C(O)[C@@H]2[C@@H]3O[C@@H](C[C@H]3c3cccc(C(F)(F)F)c3)[C@@H]2C1=O :: 90%
CCc1cc(C)cc(CC)c1C1=C(O)[C@@H]2[C@@H]3O[C@@H](C[C@H]3c3ccc([N+](=O)[O-])cc3Cl)[C@@H]2C1=O :: 80%

Now take the following compound into account.
query: Value wanted: pest or weed control at 125 g/ha (Alopecurus myosuroides (ALOMY)) of entry CCc1cc(C)cc(CC)c1C1=C(O)[C@@H]2[C@@H]3O[C@@H](C[C@H]3c3cc([N+](=O)[O-])ccc3C)[C@@H]2C1=O (racemic)
result: 10%

---

pest or weed control at 250 g/ha: recorded values
# System: Echinochloa crus-galli (ECHCG)
# METHOD DESCRIPTION: Test Example 1 pre-emergence herbicidal activity
# Format: in vivo
# ASSAY CONTEXT: Echinochloa crus-galli, 480 h, rate 250 g/ha, evaluated 20 days later, read-out: Pre-emergence activity ECHCG (100=total damage to plant; 0=no damage to plant)
The answer should read as a number with its unit following.

Cc1cc(C)c(C2=C(OC(=O)OC(C)C)[C@H]3[C@@H](C2=O)[C@@H]2CC[C@H]3O2)c(C)c1 (racemic) :: 90%

query: Entry Cc1cc(C)c(C2=C(OC(=O)C3CC3)[C@H]3[C@@H](C2=O)[C@@H]2CC[C@H]3O2)c(C)c1 (racemic) has what pest or weed control at 250 g/ha?
result: 90%

query: Param item = CCc1cc(C)cc(CC)c1C1=C(O)[C@H]2[C@@H](C1=O)[C@@H]1CC[C@@]2(C)O1 ; retrieve measured pest or weed control at 250 g/ha.
result: 100%

---

# Tested on: Avena fatua (AVEFA)
# METHOD DESCRIPTION: Test Example 1 post-emergence herbicidal activity
# Type: in vivo
# ASSAY CONTEXT: 360 h, rate 125 g/ha, evaluated 15 days later, read-out: Post-emergence activity AVEFA (100=total damage to plant; 0=no damage to plant)
ASSAY ENDPOINT: pest or weed control at 125 g/ha (%)
Answer format: numeric, % implied, no suffix.

Observe how each entry below is paired with its result.
Cc1cc(C)c(C2=C(O)[C@@H]3[C@@H]4O[C@@H]([C@H](Br)[C@H]4Br)[C@@H]3C2=O)c(C)c1 [Example T46] :: 0
CCc1cc(C)cc(CC)c1C1=C(O)[C@@H]2[C@@H]3O[C@@H](C[C@H]3c3ccc(F)c(Cl)c3)[C@@H]2C1=O [Example T149] :: 90
Cc1cc(C)c(C2=C(O)[C@H]3[C@@H](C2=O)[C@@H]2C=C(CO)[C@@]3(C)O2)c(C)c1 [Example T58] :: 10

Query compound follows.
query: Dear colleague, I am looking for the recorded pest or weed control at 125 g/ha of the following compound: Cc1cc(C)c(C2=C(O)[C@@H]3[C@@H]4O[C@@H](C[C@H]4c4ccccc4)[C@@H]3C2=O)c(C)c1 [Example T56]
result: 50

---

# Test system: Alopecurus myosuroides (ALOMY)
# METHOD DESCRIPTION: Test Example 1 post-emergence herbicidal activity
# Assay type: in vivo
# ASSAY CONTEXT: 360 h, rate 125 g/ha, evaluated 15 days later, read-out: Post-emergence activity ALOMY (100=total damage to plant; 0=no damage to plant)
Item-by-item account of pest or weed control at 125 g/ha
Reply with just the number (in %).

# annotated cases, reported pest or weed control at 125 g/ha shown
Cc1cc(C)c(C2=C(OC(=O)C3CC3)[C@H]3[C@@H](C2=O)[C@@H]2CC[C@H]3O2)c(C)c1 (racemic) :: 100
Cc1cc(C)c(C2=C(O)[C@H]3[C@@H](C2=O)[C@@H]2C=C(CO)[C@@]3(C)O2)c(C)c1 :: 0
CCCCCCC(=O)OC1=C(c2c(CC)cc(C)cc2CC)C(=O)[C@@H]2[C@H]1[C@H]1CC[C@@H]2O1 (racemic) :: 100
Cc1cc(C)c(C2=C(O)[C@H]3[C@@H](C2=O)[C@@H]2CC[C@@]3(CO)O2)c(C)c1 :: 80
COC[C@H]1C[C@@H]2O[C@H]1[C@H]1C(O)=C(c3c(C)cc(C)cc3C)C(=O)[C@H]12 :: 100

query: Name the recorded pest or weed control at 125 g/ha for C#CCOC(=O)OC1=C(c2c(C)cc(C)cc2C)C(=O)[C@@H]2[C@H]1[C@@]1(C)CC[C@]2(C)O1 (racemic) .
result: 60

query: Bench note: what pest or weed control at 125 g/ha did Cc1cc(C)c(C2=C(O)[C@@H]3[C@@H]4O[C@@H](C[C@H]4c4ccc(C(F)(F)F)nc4)[C@@H]3C2=O)c(C)c1 (racemic) show?
result: 80

query: Reported pest or weed control at 125 g/ha, molecule CCc1cc(C)cc(CC)c1C1=C(O)[C@@H]2[C@@H]3O[C@@H](C[C@H]3c3cccc(OC)c3)[C@@H]2C1=O : ____
result: 50

---

# Test system: Avena fatua (AVEFA)
# METHOD DESCRIPTION: Test Example 1 post-emergence herbicidal activity
# Type: in vivo
# ASSAY CONTEXT: 360 h, rate 125 g/ha, evaluated 15 days later, read-out: Post-emergence activity AVEFA (100=total damage to plant; 0=no damage to plant)
ASSAY ENDPOINT: pest or weed control at 125 g/ha (%)
Return type: number; implicit unit %.

Below: 4 molecules and their reported pest or weed control at 125 g/ha.
CCc1cc(C)cc(CC)c1C1=C(O)[C@H]2[C@@H](C1=O)[C@@H]1CC[C@@]2(CO)O1 [Example T14] :: 80
CCc1cc(C)cc(CC)c1C1=C(O)[C@@H]2[C@@H]3O[C@@H](C[C@H]3c3ccc([N+](=O)[O-])cc3)[C@@H]2C1=O [Example T158] :: 90
CCc1cc(C)cc(CC)c1C1=C(O)[C@@H]2[C@@H]3O[C@@H](C[C@H]3c3ccc(OC(F)(F)F)cc3)[C@@H]2C1=O (racemic) [Example T159] :: 70
Cc1cc(C)c(C2=C(O)[C@H]3[C@@H](C2=O)[C@@H]2CC[C@@]3(C)O2)c(C)c1 (racemic) [Example T9] :: 60

query: Endpoint output: pest or weed control at 125 g/ha of Cc1cc(C)c(C2=C(O)[C@@H]3[C@@H]4O[C@@H](C[C@H]4c4ccc([N+](=O)[O-])cc4)[C@@H]3C2=O)c(C)c1 [Example T90] . Value?
result: 80

query: Quick check: pest or weed control at 125 g/ha of CCc1cc(C)cc(CC)c1C1=C(O)[C@@H]2[C@@H]3O[C@@H](C[C@H]3c3ccc(C)c(Cl)c3)[C@@H]2C1=O [Example T151] ?
result: 80
